Sourced from PubChem BioAssay (Tox21)

experiment.notes: qHTS assay to identify small molecule antagonists of the thyroid receptor (TR) signaling pathway (AID 743065); also: nearly all actives have a fitted effect of over 55% in size
test.context: GH3.TRE-Luc, T3-stimulated luciferase inhibition, 23.5 h; series mostly up to 70.3 µM
Records with an inconclusive call do not appear. The source made the active and inactive calls. Calls follow the shape of the dose curve; as a rule, active = well fitted inhibition curve with a large enough effect in the repeat runs; inconclusive = weak or mixed curves; inactive = no such curve, though single readings can be large or run the other way.
Labels: yes (active), no (inactive)

[[record]]
compound = "C=C1C[C@]23C[C@@]1(O)CC[C@H]2[C@@]12C=C[C@H](O)[C@@](C)(C(=O)O1)[C@H]2[C@@H]3C(=O)O"
discrete_label = "no"

[[record]]
compound = "O=c1n(CCCN2CCN(c3cccc(Cl)c3)CC2)nc2ccccn12"
discrete_label = "no"

[[record]]
compound = "CC(=O)OCc1ccc2c(c1)OCO2"
discrete_label = "no"

[[record]]
compound = "CCCCCCCC(=O)O"
discrete_label = "no"

[[record]]
compound = "C[Si](C)(C)N[Si](C)(C)C"
discrete_label = "no"

[[record]]
compound = "O=[N+]([O-])c1cc(C(F)(F)F)ccc1Cl"
discrete_label = "no"

[[record]]
compound = "O=[N+]([O-])c1ccccc1C(F)(F)F"
discrete_label = "no"

[[record]]
compound = "NC(=O)NC(N)=O"
discrete_label = "no"

[[record]]
compound = "C1CCCNCC1"
discrete_label = "no"

[[record]]
compound = "OC1CCCCC1"
discrete_label = "no"

[[record]]
compound = "CC(C)c1ccc(C(C)C)cc1"
discrete_label = "no"

[[record]]
compound = "CC(=O)OCCC(C)C"
discrete_label = "no"

[[record]]
compound = "O=C1CCCCCCCCCCC1"
discrete_label = "no"

[[record]]
compound = "CO[Si](CCCNCCN)(OC)OC"
discrete_label = "no"

[[record]]
compound = "NCCNCCNCCN"
discrete_label = "no"

[[record]]
compound = "O=C1OC(=O)c2c(Cl)c(Cl)c(Cl)c(Cl)c21"
discrete_label = "no"

[[record]]
compound = "Cc1ccncc1"
discrete_label = "no"

[[record]]
compound = "CC(=O)C(C)C"
discrete_label = "no"

[[record]]
compound = "COC(=O)OC"
discrete_label = "no"

[[record]]
compound = "Cc1ccccc1C=O"
discrete_label = "no"

[[record]]
compound = "CCCOC(=O)NCCCN(C)C"
discrete_label = "no"

[[record]]
compound = "Clc1cccc(Cl)c1NC1=NCCN1"
discrete_label = "no"

[[record]]
compound = "CC(C)(C)NC[C@H](O)COc1nsnc1N1CCOCC1"
discrete_label = "no"

[[record]]
compound = "N#CCC(=O)O"
discrete_label = "no"

[[record]]
compound = "OCC(O)CS (stereo unspecified)"
discrete_label = "no"

[[record]]
compound = "Nc1cccc(C(F)(F)F)c1"
discrete_label = "no"

[[record]]
compound = "CC/C=C(\\C(=O)N[C@@H]1C(=O)N2C(C(=O)OCOC(=O)C(C)(C)C)=C(COC(N)=O)CS[C@H]12)c1csc(N)n1"
discrete_label = "no"

[[record]]
compound = "O=C(NCC1CCCCN1)c1cc(OCC(F)(F)F)ccc1OCC(F)(F)F (stereo unspecified)"
discrete_label = "yes"

[[record]]
compound = "Cc1cc(C)c(O)c(C)c1"
discrete_label = "no"

[[record]]
compound = "CC(=O)OC(C)(C)C1CC=C(C)CC1 (stereo unspecified)"
discrete_label = "no"

[[record]]
compound = "CCCCC(=O)O"
discrete_label = "no"

